Biological target: HIF1A
Assay: HeLa, 100 nM transfected, 24 h, mean of 3
Settings: ASO
Bases are written 5' to 3'; sugars and linkages follow in the same order, as letters with counts (s phosphorothioate, o phosphodiester; PS: all linkages phosphorothioate). C may stand for cytosine or 5-methylcytosine; the collection does not tell. l = locked nucleic acid (LNA); d = 2'-deoxy (DNA)
caspase activation (% of PBS control) listing for selected sequences.
PROPERTY_NAME: caspase activation (% of PBS control)

INSERT INTO assay_data (sequence_data, assay_target, reported_result) VALUES
  ('TGGCAAGCATCCTGTA (sugars llddlddddddldddl, PS)', 'HIF1A', 383),
  ('GTTACTGCCTTCTTAC (sugars l1 d1 l1 d8 l5, PS)', 'HIF1A', 298),
  ('GTTACTGCCTTCTTAC (sugars l1 d2 l1 d7 l5, PS)', 'HIF1A', 268),
  ('GTTACTGCCTTCTTAC (sugars llddlddddddlldll, PS)', 'HIF1A', 208),
  ('GTTACTGCCTTCTTAC (sugars l5 d6 l3 d1 l1, PS)', 'HIF1A', 603),
  ('TGGCAAGCATCCTGTA (sugars ldldddddddddlddl, PS)', 'HIF1A', 172),
  ('GTTACTGCCTTCTTAC (sugars lddllddddddldddl, PS)', 'HIF1A', 188),
  ('GTTACTGCCTTCTTAC (sugars ldldldddddddddll, PS)', 'HIF1A', 151),
  ('GTTACTGCCTTCTTAC (sugars ldlllddddddldldl, PS)', 'HIF1A', 438),
  ('GTTACTGCCTTCTTAC (sugars lldldddddddldldl, PS)', 'HIF1A', 193),
  ('TTACTGCCTTCTT (sugars l4 d6 l3, PS)', 'HIF1A', 396),
  ('TTACTGCCTTCTT (sugars l1 d1 l1 d7 l3, PS)', 'HIF1A', 183),
  ('GTTACTGCCTTCT (sugars l4 d8 l1, PS)', 'HIF1A', 142),
  ('TGGCAAGCATCCTGTA (sugars l2 d11 l3, PS)', 'HIF1A', 365),
  ('TACTGCCTTCTTA (sugars l1 d2 l1 d6 l3, PS)', 'HIF1A', 246),
  ('GGCAAGCATCCTG (sugars l2 d10 l1, PS)', 'HIF1A', 291),
  ('GTTACTGCCTTCT (sugars l1 d1 l1 d9 l1, PS)', 'HIF1A', 117),
  ('TGGCAAGCATCCTGTA (sugars l2 d13 l1, PS)', 'HIF1A', 489),
  ('TGGCAAGCATCCTGTA (sugars lldllddddddldldl, PS)', 'HIF1A', 483),
  ('TGGCAAGCATCCTGTA (sugars l4 d8 l1 d2 l1, PS)', 'HIF1A', 429),
  ('GTTACTGCCTTCTTAC (sugars l3 d8 l2 d2 l1, PS)', 'HIF1A', 273),
  ('TGGCAAGCATCCTGTA (sugars l2 d2 l1 d9 l2, PS)', 'HIF1A', 391),
  ('TGGCAAGCATCCTGTA (sugars ldlddddddddllldl, PS)', 'HIF1A', 254),
  ('GTTACTGCCTTCTTAC (sugars ldlldddddddlldll, PS)', 'HIF1A', 218),
  ('GCAAGCATCCTGT (sugars l1 d1 l1 d9 l1, PS)', 'HIF1A', 165),
  ('TACTGCCTTCTTA (sugars l2 d8 l3, PS)', 'HIF1A', 363),
  ('TGGCAAGCATCCTGTA (sugars lldldddddddldlll, PS)', 'HIF1A', 423);

----------
Biological target: HIF1A
Assay: HeLa, 100 nM transfected, 24 h, mean of 3
Conditions: ASO
Bases are written 5' to 3'; sugars and linkages follow in the same order, as letters with counts (s phosphorothioate, o phosphodiester; PS: all linkages phosphorothioate). C may stand for cytosine or 5-methylcytosine; the collection does not tell. l = locked nucleic acid (LNA); d = 2'-deoxy (DNA)
Answer NOT MET if caspase activation (% of PBS control) is under 300, and MET if it is 300 or more.

INSERT INTO results (sequence_data, label) VALUES
  ('TGGCAAGCATCCTGTA (sugars ldldlddddddddldl, PS)', 'NOT MET'),
  ('ACTGCCTTCTTAC (sugars l2 d1 l1 d7 l2, PS)', 'NOT MET'),
  ('GTTACTGCCTTCTTAC (sugars l4 d8 l1 d1 l2, PS)', 'NOT MET'),
  ('TGGCAAGCATCCTGTA (sugars llldlddddddlddll, PS)', 'MET'),
  ('TGGCAAGCATCCTGTA (sugars l4 d7 l2 d1 l2, PS)', 'MET'),
  ('GCAAGCATCCTGT (sugars l2 d8 l1 d1 l1, PS)', 'NOT MET'),
  ('GTTACTGCCTTCTTAC (sugars l1 d1 l3 d7 l4, PS)', 'MET'),
  ('TGGCAAGCATCCTGTA (sugars llddlddddddldlll, PS)', 'MET'),
  ('TGGCAAGCATCCTGTA (sugars l1 d2 l2 d10 l1, PS)', 'MET'),
  ('TGGCAAGCATCCTGTA (sugars l1 d3 l1 d7 l4, PS)', 'NOT MET'),
  ('GGCAAGCATCCTG (sugars l1 d1 l1 d8 l2, PS)', 'MET');

----------
Target: HIF1A
Experiment: HeLa, 100 nM transfected, 24 h, mean of 3
Details: ASO
Bases are written 5' to 3'; sugars and linkages follow in the same order, as letters with counts (s phosphorothioate, o phosphodiester; PS: all linkages phosphorothioate). C may stand for cytosine or 5-methylcytosine; the collection does not tell. l = locked nucleic acid (LNA); d = 2'-deoxy (DNA)
PROPERTY_NAME: caspase activation (% of PBS control)

INSERT INTO measurements (sequence_data, assay_target, reported_result) VALUES
  ('GTTACTGCCTTCTTAC (sugars lldllddddddlldll, PS)', 'HIF1A', 289),
  ('TGGCAAGCATCCTGTA (sugars lddllddddddldddl, PS)', 'HIF1A', 361),
  ('GTTACTGCCTTCTTAC (sugars l2 d2 l1 d8 l3, PS)', 'HIF1A', 237),
  ('GTTACTGCCTTCTTAC (sugars l1 d10 l1 d3 l1, PS)', 'HIF1A', 127),
  ('TGGCAAGCATCCTGTA (sugars l2 d9 l2 d2 l1, PS)', 'HIF1A', 422),
  ('GTTACTGCCTTCTTAC (sugars ldllldddddddldll, PS)', 'HIF1A', 387),
  ('GTTACTGCCTTCTTAC (sugars ldlllddddddllddl, PS)', 'HIF1A', 499),
  ('GTTACTGCCTTCTTAC (sugars lldllddddddddldl, PS)', 'HIF1A', 291),
  ('GTTACTGCCTTCTTAC (sugars l5 d8 l3, PS)', 'HIF1A', 512),
  ('GTTACTGCCTTCT (sugars l1 d1 l2 d6 l3, PS)', 'HIF1A', 239),
  ('TGGCAAGCATCCTGTA (sugars l2 d1 l1 d11 l1, PS)', 'HIF1A', 378),
  ('TTACTGCCTTCTT (sugars lddlddddddldl, PS)', 'HIF1A', 127),
  ('GTTACTGCCTTCTTAC (sugars l3 d1 l1 d9 l2, PS)', 'HIF1A', 185),
  ('GTTACTGCCTTCTTAC (sugars l2 d9 l2 d2 l1, PS)', 'HIF1A', 199);

----------
Target: HIF1A
Test: HeLa, 100 nM transfected, 24 h, mean of 3
Settings: ASO
Bases are written 5' to 3'; sugars and linkages follow in the same order, as letters with counts (s phosphorothioate, o phosphodiester; PS: all linkages phosphorothioate). C may stand for cytosine or 5-methylcytosine; the collection does not tell. l = locked nucleic acid (LNA); d = 2'-deoxy (DNA)
caspase activation (% of PBS control) listing for selected sequences.
PROPERTY_NAME: caspase activation (% of PBS control)

INSERT INTO measurements (sequence_data, reported_result) VALUES
  ('TGGCAAGCATCCTGTA (sugars l1 d14 l1, PS)', 201),
  ('TGGCAAGCATCCT (sugars l1 d1 l2 d7 l2, PS)', 353),
  ('TGGCAAGCATCCTGTA (sugars l3 d9 l4, PS)', 582),
  ('GTTACTGCCTTCTTAC (sugars l1 d1 l3 d9 l2, PS)', 292),
  ('GTTACTGCCTTCTTAC (sugars ldldldddddddlldl, PS)', 280),
  ('GGCAAGCATCCTG (sugars l3 d9 l1, PS)', 496),
  ('ACTGCCTTCTTAC (sugars l1 d1 l2 d8 l1, PS)', 222),
  ('TTACTGCCTTCTT (sugars l1 d2 l1 d8 l1, PS)', 105),
  ('TGGCAAGCATCCTGTA (sugars l3 d1 l1 d10 l1, PS)', 354),
  ('ACTGCCTTCTTAC (sugars lddlddddddldl, PS)', 118),
  ('GCAAGCATCCTGT (sugars lldlddddddldl, PS)', 209),
  ('TGGCAAGCATCCTGTA (sugars l5 d8 l3, PS)', 360),
  ('TGGCAAGCATCCTGTA (sugars ldlldddddddddldl, PS)', 297),
  ('GTTACTGCCTTCT (sugars l1 d9 l3, PS)', 171),
  ('TGGCAAGCATCCT (sugars l2 d1 l1 d7 l2, PS)', 361),
  ('TGGCAAGCATCCTGTA (sugars l3 d8 l2 d2 l1, PS)', 221),
  ('GTTACTGCCTTCTTAC (sugars ldldddddddddlddl, PS)', 118),
  ('GTTACTGCCTTCTTAC (sugars l3 d10 l3, PS)', 134),
  ('TGGCAAGCATCCTGTA (sugars lddldddddddllddl, PS)', 314),
  ('GTTACTGCCTTCTTAC (sugars ldldlddddddllldl, PS)', 354),
  ('GTTACTGCCTTCTTAC (sugars l3 d8 l3 d1 l1, PS)', 360),
  ('GTTACTGCCTTCTTAC (sugars llddldddddddlddl, PS)', 197),
  ('GTTACTGCCTTCTTAC (sugars l2 d1 l1 d11 l1, PS)', 110),
  ('TGGCAAGCATCCTGTA (sugars ldldlddddddlllll, PS)', 342),
  ('TACTGCCTTCTTA (sugars l1 d1 l2 d7 l2, PS)', 448),
  ('TTACTGCCTTCTT (sugars l1 d1 l1 d9 l1, PS)', 117),
  ('GGCAAGCATCCTG (sugars l1 d11 l1, PS)', 316),
  ('GTTACTGCCTTCTTAC (sugars ldldlddddddldlll, PS)', 231),
  ('GGCAAGCATCCTG (sugars lldlddddddldl, PS)', 334),
  ('CAAGCATCCTGTA (sugars l1 d9 l3, PS)', 135),
  ('TGGCAAGCATCCTGTA (sugars ldllddddddddlldl, PS)', 412),
  ('TTACTGCCTTCTT (sugars l1 d1 l1 d8 l2, PS)', 146),
  ('GTTACTGCCTTCT (sugars l2 d1 l1 d7 l2, PS)', 134),
  ('TGGCAAGCATCCTGTA (sugars l3 d1 l1 d9 l2, PS)', 382);
